- assay_target: Avi-KRAS G12C (2-169) GTP/RAF1 RBD-3xFLAG (51-131) (Homo sapiens, UniProt P01116, G12C)
- Construct: Avi-KRAS G12C (2-169)
- Sequence (P01116 2-169 isoform P01116-2 G12C): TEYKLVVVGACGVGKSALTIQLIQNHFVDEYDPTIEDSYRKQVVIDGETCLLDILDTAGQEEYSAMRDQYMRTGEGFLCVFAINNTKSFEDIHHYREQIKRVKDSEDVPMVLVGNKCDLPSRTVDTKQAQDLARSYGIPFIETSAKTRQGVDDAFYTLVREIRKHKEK
- method_notes: Raf1-KRAS G12C-GTP disruption HTRF assay (Biological Example 3)
- Format: binding
- condition_context: KRAS G12C, GTP-loaded
- Procedure: Biological Example 3: Disrupting RAS-Effector Binding HTRF Assay A protein:protein interaction (PPI) Homogeneous Time Resolved Fluorescence (HTRF) assay was used to determine the effectiveness of compounds in disrupting KRAS protein and effector (RAF1) binding. […] Plates were analyzed on an Envision plate reader using the following setting: Excitation 320 nm, Bandwidth 75 nm; Emission 615 nm, Bandwidth 85 nm; Gain 100%; Flashes 100; Lag 60 μs. […] Data was plotted and analyzed using Prism 8. […]
measured_parameter: IC50

### Prompt Sample CCN(c1nc(OC[C@@]23CCCN2C[C@H](F)C3)nc2c(F)c(-c3ccc(F)c4sc(N)c(C#N)c34)c(C(F)(F)F)cc12)[C@H]1CC(=O)N(CC(F)F)C1 (atropisomer, axis not shown) [Compound 613] — what was its IC50?
### Response ≤ 100 nM

### Prompt Sample CCN(c1nc(OC[C@@]23CCCN2C[C@H](F)C3)nc2c(F)c(-c3ccc(F)c4sc(N)c(C#N)c34)c(C(F)(F)F)cc12)[C@H]1CCN(C(=O)[C@@H]2C[C@@H]2F)[C@@H]1C (atropisomer, axis not shown) [Compound 889] — what was its IC50?
### Response 100 to 1000 nM

### Prompt Sample CCN(c1nc(OC[C@@]23CCCN2C[C@H](F)C3)nc2c(F)c(-c3ccc(F)c4sc(N)c(C#N)c34)c(C(F)(F)F)cc12)[C@H]1CCN(C(=O)N2CC(F)C2)[C@H]1C (atropisomer, axis not shown) [Compound 818] — what was its IC50?
### Response 1000 to 10000 nM

### Prompt Sample CCN(c1nc(OC[C@@]23CCCN2C[C@H](F)C3)nc2c(F)c(-c3ccc(F)c4sc(N)c(C#N)c34)c(C(F)(F)F)cc12)[C@H]1C[C@H](C)N(C(=O)[C@@H]2C[C@@H]2F)C1 (atropisomer, axis not shown) [Compound 841] — what was its IC50?
### Response 100 to 1000 nM

### Prompt Sample CCN1C[C@@H](N(CC)c2nc(OC[C@@]34CCCN3C[C@H](F)C4)nc3c(F)c(-c4ccc(F)c5sc(N)c(C#N)c45)c(C(F)(F)F)cc23)CC1=O [Compound 529] — what was its IC50?
### Response ≤ 100 nM

### Prompt Sample Cc1c(C(=O)N(C)C)nn2c1CN(c1nc(OC[C@@]34CCCN3C[C@H](F)C4)nc3c(F)c(-c4ccc(F)c5sc(N)c(C#N)c45)c(C(F)(F)F)cc13)CC2 [Compound 501] — what was its IC50?
### Response 100 to 1000 nM

### Prompt Sample CCN(c1nc(OC[C@@]23CCCN2C[C@H](F)C3)nc2c(F)c(-c3ccc(F)c4sc(N)c(C#N)c34)c(C(F)(F)F)cc12)C1C[C@H](C)N(C(=O)C2CC2)C1 (stereo partly drawn) [Compound 909] — what was its IC50?
### Response 100 to 1000 nM

### Prompt Sample CCN(c1nc(OC[C@@]23CCCN2C[C@H](F)C3)nc2c(F)c(-c3ccc(F)c4sc(N)c(C#N)c34)c(C(F)(F)F)cc12)[C@H]1C[C@H](C)N(C(=O)c2coc(C)n2)C1 (atropisomer, axis not shown) [Compound 915] — what was its IC50?
### Response 100 to 1000 nM

### Prompt Sample CCN(c1nc(OC[C@@]23CCCN2C[C@H](F)C3)nc2c(F)c(-c3ccc(F)c4sc(N)c(C#N)c34)c(C(F)(F)F)cc12)[C@@H]1CCN(C(=O)C2CC2)[C@@H]1C (atropisomer, axis not shown) [Compound 524] — what was its IC50?
### Response 100 to 1000 nM

The origin of these recorded values is patent US20260042764A1.
